- targetOrTestSystem: PSMA Fab (anti-PSMA Fab; 006 PSMA Fab)
- experimentalProtocol: phage binding ELISA; clonal phage supernatant on biotinylated PSMA Fab captured on neutravidin plate; anti-M13 HRP detection
measurementLabel: Phage binding ELISA signal, Anti-PSMA Fab

{"columns": ["binder", "recordedMeasurement"],
 "data": [
  ["IVKWCTPAWMCDQQ [Phage-2736 (Peptide-180 library clone)]", 0.72],
  ["WQKWCTPMWMCEAT [Phage-2727 (Peptide-180 library clone)]", 0.744],
  ["INKWCTPAWMCDLS [Phage-2726 (Peptide-180 library clone)]", 0.747],
  ["MEKMCTPQWMCDMW [Phage-2725 (Peptide-180 library clone)]", 0.749],
  ["FENWCTPYWMCSGM [Phage-2739 (Peptide-180 library clone)]", 0.712],
  ["HGKLCTPSWMCNGF [Phage-2735 (Peptide-180 library clone)]", 0.721],
  ["VNPSCTPSWMCLGL [Phage-2728 (Peptide-180 library clone)]", 0.739]
]}
